experiment: Stability assessed as half life in aqueous acidic solution at pH 1.2 by HPLC; type: physicochemical; settings: buffer
Quick reference for t1/2 among some compounds
Write the answer as a number in h, unit excluded.

Example compounds with recorded t1/2:
CCN(CC)CC.O=c1ccn([C@@H]2O[C@H](COP(=O)(O)CP(=O)(O)OP(=O)(O)OC[C@H]3O[C@@H](n4ccc(=O)[nH]c4=O)[C@H](O)[C@@H]3O)[C@@H](O)[C@H]2O)c(=O)[nH]1; 34
CCN(CC)CC.CO/N=c1/ccn([C@@H]2O[C@H](COP(=O)(O)OP(=O)(O)OP(=O)(O)OC[C@H]3O[C@@H](n4ccc(=O)[nH]c4=O)[C@H](O)[C@@H]3O)[C@@H](O)[C@H]2O)c(=O)[nH]1; 120
CCN(CC)CC.O=c1ccn([C@@H]2O[C@H](COP(=O)(O)OP(=O)(O)OP(=O)(O)OC3CCCCC3)[C@@H](O)[C@H]2O)c(=O)[nH]1; 193
CCN(CC)CC.O=c1[nH]/c(=N\OCc2ccccc2)ccn1[C@@H]1O[C@H](COP(=O)(O)OP(=O)(O)O)[C@@H](O)[C@H]1O; 126
O=c1ccn([C@@H]2O[C@H](COP(=O)(O)OP(=O)(O)OP(=O)(O)O)[C@@H](O)[C@H]2O)c(=O)[nH]1 [URIDINE TRIPHOSPHATE]; 23

*Q* Complete the entry with t1/2 for CCN(CC)CC.CO/N=c1/ccn([C@@H]2O[C@H](COP(=O)(O)OP(=O)(O)O)[C@@H](O)[C@H]2O)c(=O)[nH]1
*A* 116

*Q* Consider the compound CCN(CC)CC.O=c1ccn([C@@H]2O[C@H](COP(=O)(O)OP(=O)(O)OP(=O)(O)O[C@H]3O[C@H](CO)[C@@H](O)[C@H](O)[C@H]3O)[C@@H](O)[C@H]2O)c(=O)[nH]1 . State its measured t1/2.
*A* 5.1

*Q* Identify measured t1/2 corresponding to CCN(CC)CC.O=c1ccn([C@@H]2O[C@H](COP(=O)(O)OP(=O)(O)OP(=O)(O)Oc3ccccc3)[C@@H](O)[C@H]2O)c(=O)[nH]1
*A* 164

*Q* Give t1/2 for CCN(CC)CC.O=c1ccn([C@@H]2O[C@H](COP(=O)(O)CP(=O)(O)OP(=O)(O)O[C@H]3O[C@H](CO)[C@@H](O)[C@H](O)[C@H]3O)[C@@H](O)[C@H]2O)c(=O)[nH]1
*A* 2.8

* * *

Quick reference: EC50 of the listed items.
target: UniProt:Q15077; assay: Agonist activity at human recombinant P2Y6 receptor expressed in human 1321N1 cells assessed as [3H]inositol phosphate production by scintillation proximity assay
Sequence (Q15077 whole entry): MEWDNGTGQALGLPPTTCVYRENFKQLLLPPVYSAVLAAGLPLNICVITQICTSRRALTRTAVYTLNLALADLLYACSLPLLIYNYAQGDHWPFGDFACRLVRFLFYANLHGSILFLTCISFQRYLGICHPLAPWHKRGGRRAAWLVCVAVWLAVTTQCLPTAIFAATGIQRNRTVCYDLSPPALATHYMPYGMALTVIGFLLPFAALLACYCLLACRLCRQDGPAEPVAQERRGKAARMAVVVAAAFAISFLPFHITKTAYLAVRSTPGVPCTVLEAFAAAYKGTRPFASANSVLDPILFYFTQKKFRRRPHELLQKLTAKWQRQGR
Report the value in nM with no unit label.

O=c1ccn([C@@H]2O[C@H](COP(=O)(O)CP(=O)(O)O)[C@@H](O)[C@H]2O)c(=O)[nH]1; 700
CCN(CC)CC.O=c1ccn([C@@H]2O[C@H](COP(=O)(O)CP(=O)(O)OP(=O)(O)OC[C@H]3O[C@@H](n4ccc(=O)[nH]c4=O)[C@H](O)[C@@H]3O)[C@@H](O)[C@H]2O)c(=O)[nH]1; 1300
O=c1[nH]c(=O)n([C@@H]2O[C@H](COP(=O)(O)CP(=O)(O)O)[C@@H](O)[C@H]2O)cc1I; 130

Attention now turns to another entry.
*Q* Provide EC50 value for the following molecule: CONc1ccn([C@@H]2O[C@H](COP(=O)(O)OP(=O)(O)OP(=O)(O)OC[C@H]3O[C@@H](n4ccc(NOC)nc4=O)[C@H](O)[C@@H]3O)[C@@H](O)[C@H]2O)c(=O)n1
*A* 63

Hey, just so you know, these numbers are from ChEMBL document CHEMBL1155485.
